System name: NOX1 (Homo sapiens, UniProt Q9Y5S8)
Construct: endogenous in cells; host or cells: HT29
Sequence (Q9Y5S8 1-564): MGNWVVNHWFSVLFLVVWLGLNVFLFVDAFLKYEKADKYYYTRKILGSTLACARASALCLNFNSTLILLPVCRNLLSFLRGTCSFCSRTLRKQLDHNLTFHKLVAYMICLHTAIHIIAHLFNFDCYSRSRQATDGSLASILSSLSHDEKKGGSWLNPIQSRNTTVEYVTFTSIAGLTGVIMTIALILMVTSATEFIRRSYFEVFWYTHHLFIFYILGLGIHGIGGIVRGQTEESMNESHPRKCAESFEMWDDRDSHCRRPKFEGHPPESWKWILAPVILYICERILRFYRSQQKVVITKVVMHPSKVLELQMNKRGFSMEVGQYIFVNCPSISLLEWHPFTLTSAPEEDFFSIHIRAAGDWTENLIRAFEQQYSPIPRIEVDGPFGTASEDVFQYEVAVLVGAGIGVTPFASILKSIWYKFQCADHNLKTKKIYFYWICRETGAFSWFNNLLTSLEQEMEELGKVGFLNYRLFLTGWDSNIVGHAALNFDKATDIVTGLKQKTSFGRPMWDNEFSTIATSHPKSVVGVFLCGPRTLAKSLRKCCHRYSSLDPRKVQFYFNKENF
Sequence (P13498 2-195 partner limits assumed): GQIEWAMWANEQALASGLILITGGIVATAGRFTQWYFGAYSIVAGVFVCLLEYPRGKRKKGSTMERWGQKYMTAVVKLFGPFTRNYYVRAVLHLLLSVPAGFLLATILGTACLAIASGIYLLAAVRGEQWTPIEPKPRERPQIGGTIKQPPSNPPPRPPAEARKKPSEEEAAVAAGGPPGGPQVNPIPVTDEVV
Protocol details: NOX1 HT29 cell-based assay (luminol/HRP luminescence)
Reported conditions: HT-29; 1000 nM; HT29 cells; DMSO = 0%, GKT137831 = 100%
Procedure: NOX1 HT29 Cell-Based Assay: HT29 cells were cultured in T75 flask (Corning) and when 70-80% confluence was reached, cells were trypsinized, harvested in HBSS and counted. […] Luminescence was quantified using a SpectraMax i3 Multiplate reader (Molecular Devices, Sunnyvale, Calif., USA). As designed, compounds that inhibit NOX1 activity will reduce cellular ROS production, leading to reduced probe-ROS interactions and reduced well luminescence. […]
Property measured: inhibition at 1 µM

Below, each entry is followed by its recorded inhibition at 1 µM result.
Molecule	System name	inhibition at 1 µM
COc1cc2[nH]c(-c3ccccc3Cl)c(N)c(=O)c2cc1OC [Compound 36]	NOX1 (Homo sapiens, UniProt Q9Y5S8)	≥ 80%
COc1cc2[nH]c(-c3ccccc3)c(N)c(=O)c2cc1OC [Compound 37]	NOX1 (Homo sapiens, UniProt Q9Y5S8)	≥ 80%
COc1cc2[nH]c(-c3ccccc3OC(F)(F)F)c(O)c(=O)c2cc1OC [Compound 20]	NOX1 (Homo sapiens, UniProt Q9Y5S8)	≥ 80%

For every item in the list below, what is its measured inhibition at 1 µM?
1. COc1ccc(-c2[nH]c3cc(OC)c(OC)cc3c(=O)c2O)cc1 [Compound 2, 2,2,2-trifluoroacetate]
2. COc1cc2[nH]c(-c3ccc(N4CCCC4)cc3)c(O)c(=O)c2cc1OC [Compound 11]
3. COc1cc2[nH]c(-c3ccccc3Cl)c(O)c(=O)c2cc1OC [Compound 9]
4. COc1cc2[nH]c(-c3ccccc3[N+](=O)[O-])c(O)c(=O)c2cc1OC [Compound 29, 2,2,2-trifluoroacetate]
5. COc1cc2[nH]c(-c3ccc(F)cc3)c(O)c(=O)c2cc1OC [Compound 13]
6. COc1ccc(C(=O)COC(=O)c2ccc3c(=O)c(O)c(-c4ccc(OC)cc4)[nH]c3c2)cc1 [Compound 32, 2,2,2-trifluoroacetate]
7. COc1cc(Br)c(-c2[nH]c3cc(OC)c(OC)cc3c(=O)c2O)c(OC)c1 [Compound 27]
8. COc1cc2[nH]c(-c3ccccc3S(C)(=O)=O)c(O)c(=O)c2cc1OC [Compound 23]

Reply |
1. ≥ 80%
2. 50 to 79%
3. ≥ 80%
4. ≥ 80%
5. ≥ 80%
6. 50 to 79%
7. ≥ 80%
8. ≥ 80%

Below are some molecules; for each one, tell me its inhibition at 1 µM.
1. COc1cc2[nH]c(-c3ccc(Cl)cc3Cl)c(O)c(=O)c2cc1OC [Compound 24]
2. COc1ccc2[nH]c(C(=O)c3ccccc3OC)c(O)c(=O)c2c1 [Compound 34]

Reply |
1. ≥ 80%
2. ≤ 19%

====

Record form. Attribute: inhibition at 0.1 µM. Fill in for each entry.
System name: NOX2 (Homo sapiens, UniProt P04839)
Construct: HL-60 cells, rich in NOX2 expression; endogenous in cells; host or cells: DMSO-differentiated HL-60
Sequence (P04839 2-570 limits assumed): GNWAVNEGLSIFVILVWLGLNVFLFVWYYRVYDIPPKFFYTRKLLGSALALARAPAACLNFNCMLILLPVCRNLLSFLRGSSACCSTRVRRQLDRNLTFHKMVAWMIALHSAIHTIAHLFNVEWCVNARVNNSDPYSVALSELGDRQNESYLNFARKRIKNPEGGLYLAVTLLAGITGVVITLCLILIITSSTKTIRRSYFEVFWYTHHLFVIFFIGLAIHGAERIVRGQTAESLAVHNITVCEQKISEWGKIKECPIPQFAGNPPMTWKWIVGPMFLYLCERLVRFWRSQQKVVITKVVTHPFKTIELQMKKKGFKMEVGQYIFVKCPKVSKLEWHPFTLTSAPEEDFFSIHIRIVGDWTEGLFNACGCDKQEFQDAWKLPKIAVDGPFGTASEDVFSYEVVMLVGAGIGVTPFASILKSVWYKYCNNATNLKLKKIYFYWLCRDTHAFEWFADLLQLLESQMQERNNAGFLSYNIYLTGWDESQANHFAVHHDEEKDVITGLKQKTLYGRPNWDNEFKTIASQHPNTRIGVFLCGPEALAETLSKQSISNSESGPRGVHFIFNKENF
Sequence (P13498 2-195 partner limits assumed): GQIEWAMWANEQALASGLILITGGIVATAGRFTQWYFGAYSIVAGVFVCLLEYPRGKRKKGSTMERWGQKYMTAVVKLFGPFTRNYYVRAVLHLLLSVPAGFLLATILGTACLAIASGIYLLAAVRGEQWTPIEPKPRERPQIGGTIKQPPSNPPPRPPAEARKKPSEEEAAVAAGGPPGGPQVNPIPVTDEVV
Protocol details: NOX2 HL60 cell-based assay (PMA oxidative burst, L012 chemiluminescence)
Reported conditions: HL-60, 100 nM; DMSO-differentiated HL-60 cells, PMA-stimulated

Compound	Property measured	Recorded result
COc1ccccc1-c1[nH]c2cc3c(cc2c(=O)c1O)OCO3 [Compound 26]	inhibition at 0.1 µM	50 to 79%

Below are 4 compounds. Give each one its inhibition at 0.1 µM.
1. COc1ccccc1-c1[nH]c2cccc(Br)c2c(=O)c1O [Compound 25]
2. COc1cc2c(cc1OC)C(=O)NCC(c1ccccc1Cl)=N2 [Compound 35]
3. COc1cc2[nH]c(-c3ccccc3S(C)(=O)=O)c(O)c(=O)c2cc1OC [Compound 23]
4. COc1cc2[nH]c(-c3ccccc3Cl)c(O)c(=O)c2cc1OC [Compound 9]

Reply |
["≤ 19%", "≤ 19%", "50 to 79%", "≤ 19%"]

====

System name: NOX4 (Homo sapiens, UniProt Q9NPH5)
Construct: expressed in transfected cells
Sequence (Q9NPH5 1-578): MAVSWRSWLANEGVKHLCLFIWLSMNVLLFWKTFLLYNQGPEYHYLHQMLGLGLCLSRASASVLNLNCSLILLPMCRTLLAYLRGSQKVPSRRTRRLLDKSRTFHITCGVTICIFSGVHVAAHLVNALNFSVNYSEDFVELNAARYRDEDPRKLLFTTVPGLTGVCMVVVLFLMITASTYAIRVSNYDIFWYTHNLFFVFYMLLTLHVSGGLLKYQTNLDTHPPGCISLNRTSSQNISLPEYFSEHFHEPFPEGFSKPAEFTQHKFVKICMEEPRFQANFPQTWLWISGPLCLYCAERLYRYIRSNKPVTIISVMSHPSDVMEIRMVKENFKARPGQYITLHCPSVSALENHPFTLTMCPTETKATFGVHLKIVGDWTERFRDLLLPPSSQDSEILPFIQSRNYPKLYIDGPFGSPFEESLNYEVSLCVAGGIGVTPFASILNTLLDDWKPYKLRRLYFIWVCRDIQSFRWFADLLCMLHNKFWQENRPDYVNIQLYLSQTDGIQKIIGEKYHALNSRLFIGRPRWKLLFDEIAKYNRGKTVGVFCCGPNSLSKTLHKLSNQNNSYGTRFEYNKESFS
Sequence (P13498 2-195 partner limits assumed): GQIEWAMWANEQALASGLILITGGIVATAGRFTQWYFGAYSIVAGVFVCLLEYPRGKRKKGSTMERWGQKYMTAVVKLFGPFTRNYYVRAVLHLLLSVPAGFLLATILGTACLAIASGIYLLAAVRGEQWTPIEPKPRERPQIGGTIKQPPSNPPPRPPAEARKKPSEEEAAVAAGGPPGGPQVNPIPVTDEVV
Protocol details: NOX4 HEK293 overexpression cell-based assay (Amplex Red H2O2)
Reported conditions: HEK293, 1000 nM; HEK293 cells stably overexpressing NOX4; DMSO = 0, GKT137831 = 100
Protocol: Extracellular H2O2 measurement using Amplex™ Red Hydrogen Peroxide/Peroxidase Assay Kit (Catalog number: A22188; Invitrogen, Carlsbad, Calif., USA) was used to detect extracellular H2O2 release by HEK293 cells stably overexpressing NOX4. […] Cells were mixed with 100 μL of Amplex Red reagent solution containing 50 μM Amplex Red and 0.1 units/mL of HRP in KRPG buffer; each assay condition was evaluated induplicate. […]
Property measured: inhibition at 1 µM

Molecule	Recorded result
COc1ccccc1-c1[nH]c2cc3c(cc2c(=O)c1O)OCO3	≥ 80%

Here are 6 molecules. What values of inhibition at 1 µM were reported for them?
1. COc1cc2[nH]c(C(C)(C)C)c(O)c(=O)c2cc1OC
2. COc1cc2c(cc1OC)C(=O)NCC(c1ccccc1Cl)=N2
3. COc1cc2[nH]c(-c3ccccc3)c(N)c(=O)c2cc1OC
4. COc1ccc2[nH]c(C(=O)c3ccccc3OC)c(O)c(=O)c2c1
5. COc1ccccc1-c1[nH]c2cccc(-c3cccc(N(C)C)c3)c2c(=O)c1O
6. CCCOc1ccccc1-c1[nH]c2cc(OC)c(OC)cc2c(=O)c1O

Reply |
1. ≤ 19%
2. ≤ 19%
3. 50 to 79%
4. ≤ 19%
5. 50 to 79%
6. ≥ 80%
